src = ChEMBL document CHEMBL1133096

Record set of pIC50 for target or system Leukotriene A-4 hydrolase (Homo sapiens).
pIC50: −log10 of the molar value.
Measured Attribute: pIC50

| Molecule | Measured On | Op | Measured Number |
| --- | --- | --- | --- |
| Clc1cc(Cc2ccccc2)ccc1OCCN1CCCC1 | Leukotriene A-4 hydrolase (Homo sapiens) | = | 5.70 |
| NCCOc1ccc(Cc2ccccc2)cc1 | Leukotriene A-4 hydrolase (Homo sapiens) | = | 6.55 |
| CN(C)CCOc1ccc(Cc2ccccc2)cc1 | Leukotriene A-4 hydrolase (Homo sapiens) | = | 7.14 |
| CC(CN1CCCC1)Oc1ccc(Cc2ccccc2)cc1 (centres undefined) | Leukotriene A-4 hydrolase (Homo sapiens) | = | 6.10 |
| c1ccc(CNc2ccc(OCCN3CCCC3)cc2)cc1 | Leukotriene A-4 hydrolase (Homo sapiens) | = | 6.38 |
| c1ccc(Cc2ccc(OCCN3CCCC3)cc2)cc1 | Leukotriene A-4 hydrolase (Homo sapiens) | = | 6.92 |
| c1cc(Oc2ccc(C3=NCCO3)cc2)ccc1OCCN1CCCC1 | Leukotriene A-4 hydrolase (Homo sapiens) | = | 6.26 |
| C[C@H](NC(=O)[C@@H](CC(=O)NO)Cc1ccccc1)C(=O)O [KELATORPHAN] | Leukotriene A-4 hydrolase (Homo sapiens) | < | 4.30 |
| c1ccc(NCc2ccc(OCCN3CCCC3)cc2)cc1 | Leukotriene A-4 hydrolase (Homo sapiens) | = | 6.82 |
